Provide the reported melting point of each item.
Field: numeric (°C). Do not append units.

Request: Assign melting point to the following record: O=C(Nc1ccc2cc(CN3CCCC3)cnc2c1F)c1ccc(-c2ccc(F)cc2)cc1 [Example 73]
Response: 178

Request: Please list melting point recorded for the molecule CSc1ccc(-c2ccc(C(=O)Nc3cc4ncc(CN5CCCC5)cc4cc3C)cc2)cc1 [Example 219]
Response: 198
